assay: Solubility in water at 25 degrees Centigrade; assay type: physicochemical; details: read-out: S
*1 amine or outer side, *2 acyl side, *3 side chain or, on linkers, in order; H or OH if unused. Where a SMILES comes first, the peptide text is derived from it. [ ]: non-standard residue; d: D form. The star is where a group is joined. Leuψ((S)CH(OH)CH2)dVal = CC(C)C[C@H](N[*:1])[C@@H](O)C[C@@H](C(=O)[*:2])C(C)C; NMeH = CN[C@@H](Cc1c[nH]cn1)C(=O)O; NHCH2(2-pyridyl) = c1ccc(CN*)nc1; NHC(CH2OH)3 = OCC(CO)(CO)N*; Boc = CC(C)(C)OC(=O)*; CO = O=C([*:1])[*:2]
experimental-endpoint: solubility (µg/mL)
State the answer as a number, implicitly in µg/mL.

| molecule | result-unit | solubility |
| --- | --- | --- |
| CC[C@H](C)[C@H](NC(=O)[C@H](C[C@H](O)[C@H](CC(C)C)NC(=O)[C@H](Cc1c[nH]cn1)N(C)C(=O)[C@H](Cc1ccccc1)NC(=O)[C@@H]1CCCN1C(=O)NC(CO)(CO)CO)C(C)C)C(=O)NCc1ccccn1 ({NHC(CH2OH)3-CO}-PF[NMeH][Leuψ((S)CH(OH)CH2)dVal]I-{NHCH2(2-pyridyl)}) | µg/mL | 1000 |

Field: next molecule
Task item: Using the record for CC[C@H](C)[C@H](NC(=O)[C@H](C[C@H](O)[C@H](CC(C)C)NC(=O)[C@H](Cc1c[nH]cn1)N(C)C(=O)[C@H](Cc1ccccc1)NC(=O)[C@@H]1CCCN1C(=O)OC(C)(C)C)C(C)C)C(=O)NC(CO)(CO)CO (Boc-PF[NMeH][Leuψ((S)CH(OH)CH2)dVal]I-{NHC(CH2OH)3}) , state its measured solubility.
Reply: 1000

----------
molecular target: UniProt P00797; assay: Tested in vitro for inhibitory activity against plasma renin in human plasma
Sequence (P00797 whole entry, looked up): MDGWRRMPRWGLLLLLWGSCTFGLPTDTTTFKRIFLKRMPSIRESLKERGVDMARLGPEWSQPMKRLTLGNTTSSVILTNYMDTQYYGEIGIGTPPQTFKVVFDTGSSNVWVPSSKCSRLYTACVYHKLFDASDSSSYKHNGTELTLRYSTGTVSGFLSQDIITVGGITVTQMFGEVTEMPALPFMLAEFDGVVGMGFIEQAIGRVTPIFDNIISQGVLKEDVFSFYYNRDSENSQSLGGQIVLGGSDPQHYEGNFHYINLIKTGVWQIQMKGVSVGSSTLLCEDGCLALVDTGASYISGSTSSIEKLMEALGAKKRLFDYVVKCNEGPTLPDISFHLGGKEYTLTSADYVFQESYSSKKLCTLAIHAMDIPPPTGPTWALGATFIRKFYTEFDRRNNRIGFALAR
*1 amine or outer side, *2 acyl side, *3 side chain or, on linkers, in order; H or OH if unused. Where a SMILES comes first, the peptide text is derived from it. [ ]: non-standard residue; d: D form. The star is where a group is joined. Leuψ((S)CH(OH)CH2)dVal = CC(C)C[C@H](N[*:1])[C@@H](O)C[C@@H](C(=O)[*:2])C(C)C; X2 = OC[C@H]1O[C@H](O)[C@H](N*)[C@@H](O)[C@H]1O; NMeH = CN[C@@H](Cc1c[nH]cn1)C(=O)O; NHCH2(2-pyridyl) = c1ccc(CN*)nc1; NHC(CH2OH)3 = OCC(CO)(CO)N*; Boc = CC(C)(C)OC(=O)*; CO = O=C([*:1])[*:2]
experimental-endpoint: pIC50
In plain terms, pIC50 is the concentration in mol/L turned into minus its base-10 logarithm.

Here's what some known entries look like.
| compound | pIC50 |
| --- | --- |
| CC[C@H](C)[C@H](NC(=O)[C@H](C[C@H](O)[C@H](CC(C)C)NC(=O)[C@H](Cc1c[nH]cn1)N(C)C(=O)[C@H](Cc1ccccc1)NC(=O)[C@@H]1CCCN1C(=O)NC(CO)(CO)CO)C(C)C)C(=O)NCc1ccccn1 ({NHC(CH2OH)3-CO}-PF[NMeH][Leuψ((S)CH(OH)CH2)dVal]I-{NHCH2(2-pyridyl)}) | 9.48 |
| CC[C@H](C)[C@H](NC(=O)[C@H](C[C@H](O)[C@H](CC(C)C)NC(=O)[C@H](Cc1c[nH]cn1)N(C)C(=O)[C@H](Cc1ccccc1)NC(=O)[C@@H]1CCCN1C(=O)OC(C)(C)C)C(C)C)C(=O)NCc1ccccn1 (Boc-PF[NMeH][Leuψ((S)CH(OH)CH2)dVal]I-{NHCH2(2-pyridyl)}) | 9.59 |
| CC[C@H](C)[C@H](NC(=O)[C@H](C[C@H](O)[C@H](CC(C)C)NC(=O)[C@H](Cc1c[nH]cn1)N(C)C(=O)[C@H](Cc1ccccc1)NC(=O)[C@@H]1CCCN1C(=O)OC(C)(C)C)C(C)C)C(=O)NC(CO)(CO)CO (Boc-PF[NMeH][Leuψ((S)CH(OH)CH2)dVal]I-{NHC(CH2OH)3}) | 9.59 |

Field: next compound
Task item: Using the record for CC[C@H](C)[C@H](NC(=O)[C@H](C[C@H](O)[C@H](CC(C)C)NC(=O)[C@H](Cc1cnc[nH]1)N(C)C(=O)[C@H](Cc1ccccc1)NC(=O)[C@@H]1CCCN1C(=O)N[C@@H]1[C@@H](O)[C@@H](O)[C@@H](CO)O[C@@H]1O)C(C)C)C(=O)NCc1ccccn1 ({X2-CO}-PF[NMeH][Leuψ((S)CH(OH)CH2)dVal]I-{NHCH2(2-pyridyl)}) , state its measured pIC50.
Reply: 9.31

----------
test: Solubility in water at 37 degrees Centigrade; format: physicochemical; details: read-out: S
*1 amine or outer side, *2 acyl side, *3 side chain or, on linkers, in order; H or OH if unused. Where a SMILES comes first, the peptide text is derived from it. [ ]: non-standard residue; d: D form. The star is where a group is joined. Leuψ((S)CH(OH)CH2)dVal = CC(C)C[C@H](N[*:1])[C@@H](O)C[C@@H](C(=O)[*:2])C(C)C; X2 = OC[C@H]1O[C@H](O)[C@H](N*)[C@@H](O)[C@H]1O; NMeH = CN[C@@H](Cc1c[nH]cn1)C(=O)O; NHCH2(2-pyridyl) = c1ccc(CN*)nc1; NHC(CH2OH)3 = OCC(CO)(CO)N*; Boc = CC(C)(C)OC(=O)*; CO = O=C([*:1])[*:2]
experimental-endpoint: solubility

| compound | solubility |
| --- | --- |
| CC[C@H](C)[C@H](NC(=O)[C@H](C[C@H](O)[C@H](CC(C)C)NC(=O)[C@H](Cc1cnc[nH]1)N(C)C(=O)[C@H](Cc1ccccc1)NC(=O)[C@@H]1CCCN1C(=O)N[C@@H]1[C@@H](O)[C@@H](O)[C@@H](CO)O[C@@H]1O)C(C)C)C(=O)NCc1ccccn1 ({X2-CO}-PF[NMeH][Leuψ((S)CH(OH)CH2)dVal]I-{NHCH2(2-pyridyl)}) | < 2000 µg/mL |
| CC[C@H](C)[C@H](NC(=O)[C@H](C[C@H](O)[C@H](CC(C)C)NC(=O)[C@H](Cc1c[nH]cn1)N(C)C(=O)[C@H](Cc1ccccc1)NC(=O)[C@@H]1CCCN1C(=O)OC(C)(C)C)C(C)C)C(=O)NCc1ccccn1 (Boc-PF[NMeH][Leuψ((S)CH(OH)CH2)dVal]I-{NHCH2(2-pyridyl)}) | < 1000 µg/mL |
| CC[C@H](C)[C@H](NC(=O)[C@H](C[C@H](O)[C@H](CC(C)C)NC(=O)[C@H](Cc1c[nH]cn1)N(C)C(=O)[C@H](Cc1ccccc1)NC(=O)[C@@H]1CCCN1C(=O)NC(CO)(CO)CO)C(C)C)C(=O)NCc1ccccn1 ({NHC(CH2OH)3-CO}-PF[NMeH][Leuψ((S)CH(OH)CH2)dVal]I-{NHCH2(2-pyridyl)}) | 1000 µg/mL |

Task item: Using the record for CC[C@H](C)[C@H](NC(=O)[C@H](C[C@H](O)[C@H](CC(C)C)NC(=O)[C@H](Cc1c[nH]cn1)N(C)C(=O)[C@H](Cc1ccccc1)NC(=O)[C@@H]1CCCN1C(=O)OC(C)(C)C)C(C)C)C(=O)NC(CO)(CO)CO (Boc-PF[NMeH][Leuψ((S)CH(OH)CH2)dVal]I-{NHC(CH2OH)3}) , state its measured solubility.
Reply: < 1000 µg/mL
